B1: Tryptophan synthase alpha chain, P0A877 (parent)
chain: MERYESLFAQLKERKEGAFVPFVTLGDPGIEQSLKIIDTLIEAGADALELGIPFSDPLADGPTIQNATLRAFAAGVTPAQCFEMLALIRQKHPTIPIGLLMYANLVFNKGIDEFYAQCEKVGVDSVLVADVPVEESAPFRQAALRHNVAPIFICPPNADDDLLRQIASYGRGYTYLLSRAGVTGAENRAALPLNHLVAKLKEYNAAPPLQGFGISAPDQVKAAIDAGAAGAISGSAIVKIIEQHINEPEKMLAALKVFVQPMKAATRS

- Variants of: B1
- DETAILS: Escherichia coli (strain K12); pH 7; 25 °C; GdnHCl; CD; Tris-HCl 20 mM; reversible: yes; structure 1WQ5; whole UniProt chain shown
Collected ddG of mutation (higher = less stable) values appear next to each entry.
The reply should be a number in kcal/mol, with the unit left off.

P96A: 2.13
P62A: 0.31
P57A: 0.48
P28A: 1.91

Let's switch to this variant now.
# query: ddG of mutation (higher = less stable) of entry `P132A`
1.05
